Source of measurements: PubChem BioAssay

- Tested on: R275C/beta4
- ASSAY EXPLANATION: modulators of BK channel variants, profiling panel, selectivity assay, cell-based, U2OS BacMam, thallium flux, beta subunits (AID 1259406);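 also: initial slope of Thallos dye fluorescence rise after thallium is added; log ratio against the mean of 0.3% DMSO vehicle wells on the same plate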
- ASSAY CONDITIONS: at 30 µM
The entries below are paired with their reported log fold change Tl+ flux.
Reply: number alone, nothing else.

The examples below pair each entry with its known result.
CCOC(=O)CN(C=NC#N)c1ccc(OC)cc1	-0.00948
CCCCCCCCCCCCSC(=S)NCC1CCCO1 (stereo unspecified)	-0.00355
CCOC(=O)C(C)Oc1ccc(NS(=O)(=O)c2cc(OC)ccc2OC)cc1Cl (stereo unspecified)	-0.0156
CC(C)(C)NC(=S)NNc1c(Cl)cncc1Cl	-0.00379
CON=C(C(=O)N[C@@H]1C(=O)N2C(C(=O)O)=C(COC(N)=O)CS[C@H]12)c1ccco1	0.0531
O=C1C(=Cc2cc(-c3ccccc3)c(C(F)(F)F)s2)CSc2ccc(Cl)cc21	0.0191
O=C1c2cccc3c(Sc4ccccc4)ccc(c23)C(=O)N1CCc1ccccn1	-0.00592
CC1=NC2SC=C(c3ccccc3Cl)N2C(=O)C1 (stereo unspecified)	0.037
CN1C2CCC1CC(OC(c1ccccc1)c1ccccc1)C2 (stereo unspecified)	0.252
Cc1ccc(S(=O)(=O)N2Cc3ccccc3C(C)CC23CCCCC3)cc1 (stereo unspecified)	-0.0534

Q: Value lookup for log fold change Tl+ flux; key = Cc1nn(Cc2nnn(CC(=O)NN=Cc3ccc(Cl)cc3)n2)c(C)c1Br
Ans: 0.011

Q: Value lookup for log fold change Tl+ flux; key = COC(=O)c1sc(-c2ccc(Cl)cc2)cc1NC(=O)c1ccc2nsnc2c1
Ans: -0.00956

Q: Value lookup for log fold change Tl+ flux; key = COc1ccc(C[C@H](C)NC[C@@H](O)c2ccc(O)c(NC=O)c2)cc1
Ans: 0.0483

====

- System: F380Y/beta4
- ASSAY EXPLANATION: modulators of BK channel variants, profiling panel, selectivity assay, cell-based, U2OS BacMam, thallium flux, beta subunits (AID 1259406);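 also: initial slope of Thallos dye fluorescence rise after thallium is added; log ratio against the mean of 0.3% DMSO vehicle wells on the same plate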
- ASSAY CONDITIONS: at 30 µM
Categories are defined by ranges of log fold change Tl+ flux, namely low = under -0.02, moderate = from -0.02 up to 0.02, high = 0.02 and over

Example cases with answers are listed next.
O=c1[nH]c(=O)n(C2CCCO2)cc1F (configuration not stated)	low
CC(=O)OCC(=O)C12OC3(CCCC3)OC1CC1C3CCC4=CC(=O)C=CC4(C)C3(F)C(O)CC12C (configuration not stated)	moderate
COc1nc(C)nc(Cl)c1NC1=NCCN1	moderate
C[n+]1ccccc1C=NO	low
O=C(O)c1cccc(CSc2cccs2)c1	moderate
O=C(OCCSc1sccc1[N+](=O)[O-])c1ccc(Cl)cc1	low

Q: Which bin, given its log fold change Tl+ flux, does COC(=O)c1cncc(Br)c1 occupy?
Ans: low

Q: Which bin, given its log fold change Tl+ flux, does Cc1nn(C)c(NCc2cccs2)c1[N+](=O)[O-] occupy?
Ans: moderate

Q: Which bin, given its log fold change Tl+ flux, does Cc1cc(=O)oc2cc(NC(=O)C3CCC(=O)N3)ccc12 (configuration not stated) occupy?
Ans: moderate

Q: Which bin, given its log fold change Tl+ flux, does CN1CCC[C@H]1c1cccnc1 occupy?
Ans: high

Q: Which bin, given its log fold change Tl+ flux, does C=C1/C(=C\C=C2/CCC[C@]3(C)[C@@H]([C@H](C)/C=C/[C@@H](O)C4CC4)CC[C@@H]23)C[C@@H](O)C[C@@H]1O occupy?
Ans: high

====

- ASSAY EXPLANATION: modifiers of HSF1 nuclear foci, imaging, Selleck Cancer Library (AID 1347162)
- ASSAY CONDITIONS: human cells, at 10 µM; stronger effect = lower value
So basically, if plate-normalised HSF1 focus index comes in under 1 it's 1, and if it's 1 or more it's -1.

CC(=O)O[C@H]1C(=O)[C@@]2(C)C([C@H](OC(=O)c3ccccc3)[C@]3(O)C[C@H](OC(=O)[C@H](O)[C@@H](NC(=O)c4ccccc4)c4ccccc4)C(C)=C1C3(C)C)[C@]1(OC(C)=O)CO[C@@H]1C[C@@H]2O (stereo partly drawn)	-1
CC(C)C[C@H](NC(=O)[C@@H](O)[C@H](N)Cc1ccccc1)C(=O)O	-1
CS(=O)c1ccc(-c2nc(-c3ccc(F)cc3)c(-c3ccncc3)[nH]2)cc1 (stereo not drawn)	-1
Cn1cc(C2=C(c3ccc(Cl)cc3Cl)C(=O)NC2=O)c2ccccc21	-1
COc1cccc2c1C(=O)c1c(O)c3c(c(O)c1C2=O)C[C@@](O)(C(=O)CO)C[C@@H]3O[C@H]1C[C@H](N)[C@@H](O)[C@H](C)O1	1
O=c1[nH]nc(Sc2ncc([N+](=O)[O-])s2)n1-c1ccc2c(c1)OCCO2	1

Q: Input Oc1ccc(Nc2nc(-c3ccc(Cl)cc3)cs2)cc1 ; condition: plate-normalised HSF1 focus index strictly below 1. Does it hold?
Ans: -1

Q: Input CC[C@]1(O)CC2CN(CCc3c([nH]c4ccccc34)[C@@](C(=O)OC)(c3cc4c(cc3OC)N(C=O)[C@H]3[C@@](O)(C(=O)OC)[C@H](OC(C)=O)[C@]5(CC)C=CCN6CC[C@]43[C@@H]65)C2)C1 (stereo partly drawn) ; condition: plate-normalised HSF1 focus index strictly below 1. Does it hold?
Ans: -1

====

- ASSAY EXPLANATION: differential killing of epithelial or mesenchymal cells, primary screen, imaging, PC-3E GFP, TEM4-18 mCherry, co-culture (AID 1345086);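 also: cells exposed to compound for 72 h before imaging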
- ASSAY CONDITIONS: imaging cell counts, measured here: epithelial PC-3E GFP cell survival, at 1 µM
MEASURED PROPERTY: normalised cell number
Reply: number alone, nothing else.

Q: Value lookup for normalised cell number; key = C=C(NC(=O)C(=C)NC(=O)c1csc(C2=NC3c4csc(n4)C4NC(=O)c5csc(n5)C(C(C)(O)C(C)O)NC(=O)C5CSC(=N5)C(=CC)NC(=O)C(C(C)O)NC(=O)c5csc(n5)C3(CC2)NC(=O)C(C)NC(=O)C(=C)NC(=O)C(C)NC(=O)C(C(C)CC)NC2C=Cc3c(C(C)O)cc(nc3C2O)C(=O)OC4C)n1)C(N)=O (stereo unspecified)
Ans: 0.8

====

- ASSAY EXPLANATION: inhibition of 3D7 malaria parasite growth – strain 3D7 (AID 2306);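 also: 0% = DMSO wells and 100% = chloroquine plus artemisinin control wells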
- ASSAY CONDITIONS: P. falciparum 3D7 erythrocytic growth, LDH absorbance, 72 h; at 2 µM; stronger effect = higher value
The entries below are paired with their reported growth inhibition.
Give the value, in units of %, as a plain number.

The examples below pair each entry with its known result.
COc1cc(C(=O)NC2CC(C)(C)N(C)C(C)(C)C2)ccc1-c1nc2cc(Cl)c(Cl)cc2[nH]1	100
Nc1nc(N)c2c(ccc3c2ccn3CCCC2CCCNC2)n1 (stereo not given)	98
N=C(N)c1ccc(Nc2nc(Nc3ccc(-c4ccccc4)cc3)ncc2[N+](=O)[O-])cc1	99
CC(CNc1ccnc(Nc2ccc3[nH]c(=O)[nH]c3c2)n1)c1ccccc1 (stereo not given)	99

Moving on to another compound below.
Q: Value lookup for growth inhibition; key = CCC[C@@H]([C@@H](CC1CCCCC1)C(=O)N[C@H](C(=O)Nc1nccs1)C(C)(C)SCCOCCOCC)N(O)C=O
Ans: 100

====

- System: F380Y/beta1
- ASSAY EXPLANATION: modulators of BK channel variants, profiling panel, selectivity assay, cell-based, U2OS BacMam, thallium flux, beta subunits (AID 1259406);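 also: initial slope of Thallos dye fluorescence rise after thallium is added; log ratio against the mean of 0.3% DMSO vehicle wells on the same plate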
- ASSAY CONDITIONS: at 30 µM
The source made the active and inactive calls.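 How the source made its calls: active means thallium flux through the channel raised or lowered by more than 3 SD from vehicle-only wells, actives on both sides; inactive means the rest.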
Please state which outcome applies, choosing from active, inactive

Example cases with answers are listed next.
O=S1(=O)CC(N2CCOCC2)c2ccccc21 (configuration not stated)	inactive
CCCCC#Cc1ccc(C(=O)NNC(=O)Nc2ccccc2)o1	inactive
CCN1CCC(O)(C#Cc2ccccc2)CC1	inactive
CC(CCCCC(=O)Nc1ccc(C(F)(F)F)cc1)NCCc1cnc[nH]1 (configuration not stated)	inactive
O=C(Nc1ccc(Cl)cc1)c1cnccc1C(F)(F)F	inactive

Q: Which outcome was assigned to FC(F)(F)c1cc(C=Cc2noc(-c3ccc(CN4CCCC4)cc3)n2)cc(C(F)(F)F)c1 in this test?
Ans: inactive

Q: Which outcome was assigned to CO[C@H]1C=CO[C@@]2(C)Oc3c(C)c(O)c4c(O)c(c5c(nc6cc(C)ccn65)c4c3C2=O)NC(=O)C(C)=CC=C[C@H](C)[C@H](O)[C@@H](C)[C@@H](O)[C@@H](C)[C@H](OC(C)=O)[C@@H]1C in this test?
Ans: active

Q: Which outcome was assigned to Cc1cc(C(=O)N2CCN(c3ncccc3C#N)CC2)no1 in this test?
Ans: inactive

Q: Which outcome was assigned to Cc1nc(-c2ccccc2)sc1C(=O)NC(=O)c1ccccc1O in this test?
Ans: inactive

Q: Which outcome was assigned to Cc1noc(C=Cc2sccc2C2OCCO2)c1[N+](=O)[O-] in this test?
Ans: inactive

Q: Which outcome was assigned to Clc1ccc(Sc2cn[nH]c2-c2ccc3c(c2)OCCO3)cc1 in this test?
Ans: inactive

Q: Which outcome was assigned to CC(C)(S)C(N)C(=O)O (configuration not stated) in this test?
Ans: inactive

Q: Which outcome was assigned to O=C(Nc1ccc(OC(F)(F)F)cc1)Nc1cc(C(F)(F)F)ccc1N1CCOCC1 in this test?
Ans: inactive

Q: Which outcome was assigned to Cc1ccc(C)n1N(C)c1ccc([N+](=O)[O-])cn1 in this test?
Ans: inactive

Q: Which outcome was assigned to O=C(Nc1c(S(=O)(=O)c2ccccc2)csc1Br)c1ccccc1Cl in this test?
Ans: inactive

Q: Which outcome was assigned to CCCCc1nc(Cl)c(CO)n1Cc1ccc(-c2ccccc2-c2nnn[nH]2)cc1 in this test?
Ans: inactive

Q: Which outcome was assigned to N#Cc1cccc(CSc2ncnc(N)n2)c1 in this test?
Ans: inactive

Q: Which outcome was assigned to CCOC(=O)CCSC1=NC(c2cccs2)C(C(=O)OCC)=C(C)N1 (configuration not stated) in this test?
Ans: inactive

Q: Which outcome was assigned to c1ccc(-c2ccccn2)nc1 in this test?
Ans: inactive

Q: Which outcome was assigned to COc1ccc(C(C)=NO)cc1CN1CCCC1 in this test?
Ans: inactive

Q: Which outcome was assigned to Cc1nn(-c2ccccc2)nc1CNC(=O)COc1ccccc1 in this test?
Ans: inactive

Q: Which outcome was assigned to O=C(c1ccc(OCCN2CCCCC2)cc1)c1c(-c2ccc(O)cc2)sc2cc(O)ccc12 in this test?
Ans: inactive

Q: Which outcome was assigned to N#CC1=C(Nc2ccccc2Cl)SC(c2ccncc2)NC1=O (configuration not stated) in this test?
Ans: inactive

Q: Which outcome was assigned to Cc1cc2c(cc1C)CSC(c1ccco1)SC2 in this test?
Ans: inactive

Q: Which outcome was assigned to C/C(=C\C(=O)OCCCCCCCCC(=O)O)C[C@@H]1OC[C@H](C[C@@H]2O[C@H]2[C@@H](C)[C@H](C)O)[C@@H](O)[C@H]1O in this test?
Ans: inactive

Q: Which outcome was assigned to CNC(=O)Oc1ccc2c(c1)[C@]1(C)CCN(C)C1N2C (some centres not stated) in this test?
Ans: inactive

Q: Which outcome was assigned to Cc1ccccc1S(=O)(=O)NCc1ccc(N2CCN(C)CC2)cc1 in this test?
Ans: inactive

Q: Which outcome was assigned to COC(=O)c1cc(S(=O)(=O)N(Cc2ccc(OC)cc2)Cc2cccn2C)oc1C in this test?
Ans: active
